- testedSystem: T1, CD71 apical domain (UniProt P02786 189-383, limits assumed)
- T1 construct: domain: Apical domain
- T1 sequence (P02786 189-383 limits assumed): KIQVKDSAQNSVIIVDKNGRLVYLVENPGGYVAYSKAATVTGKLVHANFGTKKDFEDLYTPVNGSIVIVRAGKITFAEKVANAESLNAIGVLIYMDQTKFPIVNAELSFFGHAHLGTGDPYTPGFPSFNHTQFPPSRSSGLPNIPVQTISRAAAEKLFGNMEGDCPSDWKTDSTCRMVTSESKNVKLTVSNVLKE
- method: solution ELISA, signal ratio to HSA
Listed here are binders together with their documented apical domain:HSA.
reportedEndpoint: apical domain:HSA

INSERT INTO measurements (binder, measuredvalue) VALUES
  ('SEQ ID NO 146 (designed binder, FN3 domain) MLPAPKNLVVSRVTEDSARLSWTAPDAAFDSFYIAYAEPRPDGEAITLHVPGSERSYDLTGLKPGTEYSVLIHGVKGGLLSSPLSAIFTT', 337),
  ('SEQ ID NO 137 (designed binder, FN3 domain) MLPAPKNLVVSRVTEDSARLSWTAPDAAFDSFYIAYAEPRPDGEAIVLDVPGSERSYDLTGLKPGTEYSVLIHGVKGGLLSSPLVAEFTT', 412);
